target: CYP2C8 (Homo sapiens (Human))
Sequence (P10632 whole entry): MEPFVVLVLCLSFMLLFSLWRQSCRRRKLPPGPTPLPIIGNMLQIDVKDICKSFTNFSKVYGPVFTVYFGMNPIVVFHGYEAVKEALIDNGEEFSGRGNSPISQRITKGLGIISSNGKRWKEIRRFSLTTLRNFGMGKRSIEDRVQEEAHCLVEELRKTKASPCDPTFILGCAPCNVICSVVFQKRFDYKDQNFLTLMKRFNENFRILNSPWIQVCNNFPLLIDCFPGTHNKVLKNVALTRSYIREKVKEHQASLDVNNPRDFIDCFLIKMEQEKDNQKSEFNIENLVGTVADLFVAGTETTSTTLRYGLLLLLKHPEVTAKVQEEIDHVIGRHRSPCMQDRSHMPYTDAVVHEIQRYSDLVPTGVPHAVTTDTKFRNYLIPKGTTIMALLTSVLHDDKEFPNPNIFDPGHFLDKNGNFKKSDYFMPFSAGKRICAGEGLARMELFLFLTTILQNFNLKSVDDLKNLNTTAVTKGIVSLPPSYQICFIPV
measurement_kind: IC50

Lab entry: CYP2C8 (Homo sapiens (Human)) assay, compound `CNc1cc2c(cn1)nc([C@@H](C)O)n2[C@H]1CC[C@H](CC#N)CC1` , IC50 = > 50 µM

* * *

molecular target: CYP2C19 (Homo sapiens (Human), UniProt P33261); experiment: Reversible CYP inhibition, 2C19; assay type: in vitro ADME; conditions: up to 50 μM for Example 3, up to 25 μM for Examples 644 and 641
Sequence (P33261 whole entry): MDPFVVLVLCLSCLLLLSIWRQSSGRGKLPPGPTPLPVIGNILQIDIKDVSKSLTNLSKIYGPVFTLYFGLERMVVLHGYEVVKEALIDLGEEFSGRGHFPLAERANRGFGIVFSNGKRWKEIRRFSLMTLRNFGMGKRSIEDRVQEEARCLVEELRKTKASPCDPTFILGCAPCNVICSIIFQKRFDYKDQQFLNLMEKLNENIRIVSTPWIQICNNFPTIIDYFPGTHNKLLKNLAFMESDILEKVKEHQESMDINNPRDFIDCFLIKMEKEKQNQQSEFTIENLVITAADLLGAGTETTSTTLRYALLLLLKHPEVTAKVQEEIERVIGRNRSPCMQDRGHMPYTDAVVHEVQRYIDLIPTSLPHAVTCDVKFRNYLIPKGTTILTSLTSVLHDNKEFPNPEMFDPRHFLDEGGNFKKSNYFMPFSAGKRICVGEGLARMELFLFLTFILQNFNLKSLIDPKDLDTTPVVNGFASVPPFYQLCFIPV
pIC50: −log10 of the molar value.
pIC50 overview

Solved entries (count: 2):
C[C@@H](O)c1nc2cnc3[nH]ccc3c2n1[C@H]1CC[C@H](C#N)CC1 | < 4.60
CNc1cc2c(cn1)nc([C@@H](C)O)n2[C@H]1CC[C@H](CC#N)CC1 | < 4.30

Reported pIC50 ( `C[C@@H](O)c1nc2cnc3[nH]ccc3c2n1[C@H]1CC[C@H](CC#N)CC1` ) = < 4.60

Source listed as patent US10703751B2.
